Numbers sourced from patent US12215067B2.

assay: Pharmacokinetic study via oral administration in mice, ocular concentrations; assay type: in vivo, mice C57BL/6; settings: Table 3, repeats the eye exposure of Table 2; 50 mg/kg p.o.
READOUT KIND: Eye Exposure 50 mg/kg p.o. AUC (ng · h/eye)

CC(=C/C=C/C(C)=C/C=C/C=C(C)/C=C/C=C(C)/C=C/C(=O)NCCCN1CCOCC1)/C=C/C(=O)O [C8]
472.4
CC(=C/C=C/C(C)=C/C=C/C=C(C)/C=C/C=C(C)/C=C/C(=O)N1CCC(O)CC1)/C=C/C(=O)O [C12]
538.4

P = CC(=C/C=C/C(C)=C/C=C/C=C(C)/C=C/C=C(C)/C=C/C(=O)N1CCC(CO)CC1)/C=C/C(=O)O [C14]
Q = CC(=C/C=C/C(C)=C/C=C/C=C(C)/C=C/C=C(C)/C=C/C(=O)N1CCCCC1)/C=C/C(=O)O [C3]
Higher Eye Exposure 50 mg/kg p.o. AUC between P and Q ? Use the label to indicate which entry you chose.
P
(P: 322.5 ng · h/eye, Q: 19.1 ng · h/eye)

----------
assay: Pharmacokinetic study via oral administration in mice, ocular concentrations; assay type: in vivo, mice C57BL/6; conditions: mice, p.o. 50 mg/kg in VitE-TPGS 20% in sodium bicarbonate buffer (0.1M)
READOUT KIND: Eye CMax (ng/eye)

Some solved cases for reference:
CC(=C/C=C/C(C)=C/C=C/C=C(C)/C=C/C=C(C)/C=C/C(=O)N1CCC(O)C1)/C=C/C(=O)O (stereo in doubt) [C9]
53.1
CC(=C/C=C/C(C)=C/C=C/C=C(C)/C=C/C=C(C)/C=C/C(=O)NCC(C)(C)N1CCOCC1)/C=C/C(=O)O [C13]
60.7
CC(=C/C=C/C(C)=C/C=C/C=C(C)/C=C/C=C(C)/C=C/C(=O)NCCCN1CCOCC1)/C=C/C(=O)O [C8]
56.8
CC(=C/C=C/C(C)=C/C=C/C=C(C)/C=C/C=C(C)/C=C/C(=O)N1CCCOCC1)/C=C/C(=O)O [C5]
31.4

I = CC(=C/C=C/C(C)=C/C=C/C=C(C)/C=C/C=C(C)/C=C/C(=O)NCCN1CCOCC1)/C=C/C(=O)O [C10]
II = CC(=C/C=C/C(C)=C/C=C/C=C(C)/C=C/C=C(C)/C=C/C(=O)N1CCC(CO)CC1)/C=C/C(=O)O [C14]
III = COC1CCN(C(=O)/C=C/C(C)=C/C=C/C(C)=C/C=C/C=C(C)/C=C/C=C(C)\C=C\C(=O)O)CC1 [C24]
Ascending sort, Eye CMax. In plain terms: list the labels in the order you were asked to.
II, I, III
(II: 43.2 ng/eye, I: 64.3 ng/eye, III: 96 ng/eye)

----------
assay: Pharmacokinetic study via oral administration in mice, ocular concentrations; type: in vivo, mice C57BL/6; settings: C57BL/6, mouse, eye, po; mice, p.o. 50 mg/kg in VitE-TPGS 20% in sodium bicarbonate buffer (0.1M)
READOUT KIND: Tmax (h)

CCOCC1CCN(C(=O)/C=C/C(C)=C/C=C/C(C)=C/C=C/C=C(C)/C=C/C=C(C)\C=C\C(=O)O)CC1
2
CC(=C/C=C/C(C)=C/C=C/C=C(C)/C=C/C=C(C)/C=C/C(=O)NCCc1ccc(O)cc1)/C=C/C(=O)O
0.5
CC(=C/C=C/C(C)=C/C=C/C=C(C)/C=C/C=C(C)/C=C/C(=O)N1CCC(O)C1)/C=C/C(=O)O (stereo in doubt) [C9]
1

a = CC(=C/C=C/C(C)=C/C=C/C=C(C)/C=C/C=C(C)/C=C/C(=O)NCCN1CCOCC1)/C=C/C(=O)O
b = CC(=C/C=C/C(C)=C/C=C/C=C(C)/C=C/C=C(C)/C=C/C(=O)NCCO)/C=C/C(=O)O
c = COC1CCN(C(=O)/C=C/C(C)=C/C=C/C(C)=C/C=C/C=C(C)/C=C/C=C(C)\C=C\C(=O)O)CC1
Form: Sort by [Tmax] Order [ ascending ] # respond with the labels, arranged in the requested order
b, a, c

----------
assay: Pharmacokinetic study via oral administration in mice, ocular concentrations; type: in vivo, mice C57BL/6; settings: Table 3, repeats the eye exposure of Table 2; 50 mg/kg p.o.
READOUT KIND: Eye Exposure 50 mg/kg p.o. AUC (ng · h/eye)

In the examples that follow, each entry is paired with its recorded Eye Exposure 50 mg/kg p.o. AUC.
CC(=C/C=C/C(C)=C/C=C/C=C(C)/C=C/C=C(C)/C=C/C(=O)N[C@H]1CC[C@H](O)CC1)/C=C/C(=O)O
37.5
CC(=C/C=C/C(C)=C/C=C/C=C(C)/C=C/C=C(C)/C=C/C(=O)N1CCCC1)/C=C/C(=O)O
18.5
CC(/C=C/C=C(C)/C=C/C(=O)O)=C\C=C\C=C(C)\C=C\C=C(C)\C=C\C(=O)O [BIO201, 6,6′-diapocarotene-6,6′-dioate, reference compound]
22.4
CC(=C/C=C/C(C)=C/C=C/C=C(C)/C=C/C=C(C)/C=C/C(=O)NCC(C)(C)N1CCOCC1)/C=C/C(=O)O
461.1
CC(=C/C=C/C(C)=C/C=C/C=C(C)/C=C/C=C(C)/C=C/C(=O)N1CCOCC1)/C=C/C(=O)O
186.5

P = CC(=C/C=C/C(C)=C/C=C/C=C(C)/C=C/C=C(C)/C=C/C(=O)NCCN1CCOCC1)/C=C/C(=O)O
Q = CCCOC1CCN(C(=O)/C=C/C(C)=C/C=C/C(C)=C/C=C/C=C(C)/C=C/C=C(C)\C=C\C(=O)O)CC1
Which item exceeds the other in Eye Exposure 50 mg/kg p.o. AUC, P or Q ? Record your answer as the label of the chosen record.
P
(P: 533.2 ng · h/eye, Q: 358.5 ng · h/eye)

----------
test: Pharmacokinetic study via oral administration in mice, plasma concentrations; format: in vivo, mice C57BL/6; details: C57BL/6, mouse, in vivo, po, 50 mg/kg
READOUT KIND: Plasma Exposure (µg·h/mL)

CC(=C/C=C/C(C)=C/C=C/C=C(C)/C=C/C=C(C)/C=C/C(=O)NCCc1ccc(O)cc1)/C=C/C(=O)O
13.23
COC1CCN(C(=O)/C=C/C(C)=C/C=C/C(C)=C/C=C/C=C(C)/C=C/C=C(C)\C=C\C(=O)O)CC1
141.9

1 = CC(=C/C=C/C(C)=C/C=C/C=C(C)/C=C/C=C(C)/C=C/C(=O)N1CCCC1)/C=C/C(=O)O
2 = CC(=C/C=C/C(C)=C/C=C/C=C(C)/C=C/C=C(C)/C=C/C(=O)N1CCCOCC1)/C=C/C(=O)O
When the recorded Plasma Exposure values are compared, which is smaller: that of 1 or that of 2 ? Selection: enter the item's label.
1

I = CC(=C/C=C/C(C)=C/C=C/C=C(C)/C=C/C=C(C)/C=C/C(=O)N1CCC(O)CC1)/C=C/C(=O)O
II = CCOCC1CCN(C(=O)/C=C/C(C)=C/C=C/C(C)=C/C=C/C=C(C)/C=C/C=C(C)\C=C\C(=O)O)CC1
Please indicate which has the smaller reported Plasma Exposure: I , or II . Your answer should be the label of the entry you select.
II
(II: 24.1 µg·h/mL, I: 186.3 µg·h/mL)

----------
test: Pharmacokinetic study via oral administration in mice, ocular concentrations; type: in vivo, mice C57BL/6; conditions: Table 3, repeats the eye exposure of Table 2; 50 mg/kg p.o.
READOUT KIND: Eye Exposure 50 mg/kg p.o. AUC (ng · h/eye)

CC(=C/C=C/C(C)=C/C=C/C=C(C)/C=C/C=C(C)/C=C/C(=O)N1CCCOCC1)/C=C/C(=O)O [C5]
188.7

P = CC(=C/C=C/C(C)=C/C=C/C=C(C)/C=C/C=C(C)/C=C/C(=O)N1CCC(O)C1)/C=C/C(=O)O (stereo in doubt) [C11]
Q = CC(=C/C=C/C(C)=C/C=C/C=C(C)/C=C/C=C(C)/C=C/C(=O)NCCO)/C=C/C(=O)O [C4]
Select the item with the higher value of Eye Exposure 50 mg/kg p.o. AUC from the options P and Q listed. Your choice should be expressed through its label.
P
(P: 238.4 ng · h/eye, Q: 30.0 ng · h/eye)
